Tested on: NCI-H196 complex spheroids with HUVEC/MSC, growth % T/C
Assay: Anticancer human tumor NCI-H196 cell line growth inhibition [Asc]; active = viability on the fitted dose curve at most 10% of control; inactive = the rest;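 note: spheroids exposed to compound for 7 days before measurement; 100% = DMSO vehicle control wells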
Details: second compound 0.1 µM; first compound 0.001 µM
Your reply should match one of these outcome classes. yes (1) for active, no (0) for inactive

INSERT INTO assay_data (molecule, class_label) VALUES
  ('Cn1ncnc1[C@H]1c2n[nH]c(=O)c3cc(F)cc(c23)N[C@@H]1c1ccc(F)cc1 + CNC(C)C(=O)NC1CN(S(=O)(=O)c2cccc(S(=O)(=O)N3CCC4CCC(C(=O)NC(c5ccccc5)c5ccccc5)N4C(=O)C(NC(=O)C(C)NC)C3)c2)CCC2CCC(C(=O)NC(c3ccccc3)c3ccccc3)N2C1=O', 'yes (1)'),
  ('NC1CCC(NC2CC2c2ccccc2)CC1 (centres undefined) + Cc1c(S(C)(=O)=O)c(-c2cc(F)cc(N3CCN(c4ccc(NS(=O)(=O)c5ccc(NC(CCN6CCC(C(=O)OCCCP(=O)(O)O)CC6)CSc6ccccc6)c(S(=O)(=O)C(F)(F)F)c5)cc4)CC3)c2)c(-c2ccc(Cl)cc2)n1C(C)C', 'no (0)'),
  ('NC1CCC(NC2CC2c2ccccc2)CC1 (centres undefined) + CNC(C)C(=O)NC1CN(S(=O)(=O)c2cccc(S(=O)(=O)N3CCC4CCC(C(=O)NC(c5ccccc5)c5ccccc5)N4C(=O)C(NC(=O)C(C)NC)C3)c2)CCC2CCC(C(=O)NC(c3ccccc3)c3ccccc3)N2C1=O', 'yes (1)');

Consider the additional molecule presented here.
Could you please tell me the result logged for Cn1ncnc1[C@H]1c2n[nH]c(=O)c3cc(F)cc(c23)N[C@@H]1c1ccc(F)cc1 + Cc1c(S(C)(=O)=O)c(-c2cc(F)cc(N3CCN(c4ccc(NS(=O)(=O)c5ccc(NC(CCN6CCC(C(=O)OCCCP(=O)(O)O)CC6)CSc6ccccc6)c(S(=O)(=O)C(F)(F)F)c5)cc4)CC3)c2)c(-c2ccc(Cl)cc2)n1C(C)C in this assay?
no (0)

====

System: NCI-H196 complex spheroids with HUVEC/MSC, growth % T/C
Assay: Anticancer human tumor NCI-H196 cell line growth inhibition [Asc];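 note: spheroids exposed to compound for 7 days before measurement; 100% = DMSO vehicle control wells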
Conditions: second compound 0.0316 µM; first compound 0.316 µM; stronger effect = lower value
# satisfied = viability, T/C below 5% (exclusive); not satisfied = viability, T/C at/above 5%

Look over these answered cases.
INSERT INTO results (compound, class_label) VALUES
  ('C#Cc1c(F)ccc2cc(O)cc(-c3ncc4c(N5CC6CCC(C5)N6)nc(OCC56CCCN5CC(F)C6)nc4c3F)c12 (stereo unspecified) + CNC(C)C(=O)NC1CN(S(=O)(=O)c2cccc(S(=O)(=O)N3CCC4CCC(C(=O)NC(c5ccccc5)c5ccccc5)N4C(=O)C(NC(=O)C(C)NC)C3)c2)CCC2CCC(C(=O)NC(c3ccccc3)c3ccccc3)N2C1=O', 'satisfied'),
  ('C=C(F)C(=O)N1CCN(c2nc(OCC3CCCN3C)nc3c2CCN(c2cccc4cccc(Cl)c24)C3)CC1CC#N (stereo unspecified) + CNC(C)C(=O)NC1CN(S(=O)(=O)c2cccc(S(=O)(=O)N3CCC4CCC(C(=O)NC(c5ccccc5)c5ccccc5)N4C(=O)C(NC(=O)C(C)NC)C3)c2)CCC2CCC(C(=O)NC(c3ccccc3)c3ccccc3)N2C1=O', 'satisfied'),
  ('C=CC(=O)N1CCN(c2nc(=O)n(-c3c(C)ccnc3C(C)C)c3nc(-c4c(O)cccc4F)c(F)cc23)C(C)C1 (stereo unspecified) + CNC(C)C(=O)NC1CN(S(=O)(=O)c2cccc(S(=O)(=O)N3CCC4CCC(C(=O)NC(c5ccccc5)c5ccccc5)N4C(=O)C(NC(=O)C(C)NC)C3)c2)CCC2CCC(C(=O)NC(c3ccccc3)c3ccccc3)N2C1=O', 'not satisfied'),
  ('CCN1CCN(Cc2ccc(Nc3ncc(F)c(-c4cc(F)c5nc(C)n(C(C)C)c5c4)n3)nc2)CC1 + CNC(C)C(=O)NC1CN(S(=O)(=O)c2cccc(S(=O)(=O)N3CCC4CCC(C(=O)NC(c5ccccc5)c5ccccc5)N4C(=O)C(NC(=O)C(C)NC)C3)c2)CCC2CCC(C(=O)NC(c3ccccc3)c3ccccc3)N2C1=O', 'not satisfied');

Identify whether the compound O=C(c1ccc(F)c(F)c1Nc1ccc(I)cc1F)N1CC(O)([C@@H]2CCCCN2)C1 + CNC(C)C(=O)NC1CN(S(=O)(=O)c2cccc(S(=O)(=O)N3CCC4CCC(C(=O)NC(c5ccccc5)c5ccccc5)N4C(=O)C(NC(=O)C(C)NC)C3)c2)CCC2CCC(C(=O)NC(c3ccccc3)c3ccccc3)N2C1=O records viability, T/C below 5%.
not satisfied

Regarding COc1c(OCCCN2CCOCC2)ccc2c3n(c(=NC(=O)c4cnc(N)nc4)nc12)CCN3 + CNC(C)C(=O)NC1CN(S(=O)(=O)c2cccc(S(=O)(=O)N3CCC4CCC(C(=O)NC(c5ccccc5)c5ccccc5)N4C(=O)C(NC(=O)C(C)NC)C3)c2)CCC2CCC(C(=O)NC(c3ccccc3)c3ccccc3)N2C1=O , kindly confirm whether its viability, T/C is beneath 5%.
not satisfied
